# System: U251 CNS
# procedure-details: NCI tumour cell line growth inhibition, 48 h
Below, each entry is listed alongside its reported TGI.

>  <molecule>
O=C(CSc1nnc(-c2ccc(N=Cc3ccc(Cl)cc3)cc2)o1)Nc1ccc(Cl)cc1

>  <unit-text>
µM

>  <sign>
>

>  <TGI>
100

$$$$
>  <molecule>
CC#C[P+](c1ccccc1)(c1ccccc1)c1ccccc1

>  <unit-text>
µM

>  <sign>
=

>  <TGI>
11.8

$$$$
>  <molecule>
C=CC(=O)N1CCC(C2CCNc3c(C(N)=O)c(-c4ccc(Oc5ccccc5)cc4)nn32)CC1 (stereo not given)

>  <unit-text>
µM

>  <sign>
=

>  <TGI>
96.3

$$$$
>  <molecule>
CCOC(=O)c1csc(NC(=O)CN2CCN(C)CC2)n1

>  <unit-text>
µM

>  <sign>
>

>  <TGI>
100

$$$$
>  <molecule>
c1ccc(SC2CCSc3ccccc3C2Sc2ccccc2)cc1 (stereo not given)

>  <unit-text>
µM

>  <sign>
>

>  <TGI>
100

$$$$
>  <molecule>
COC(=O)C1C=CN(N(C)C)C2=C1C(=O)c1c(O)cccc1C2=O (stereo not given)

>  <unit-text>
µM

>  <sign>
=

>  <TGI>
11.8

$$$$
>  <molecule>
O=C(O)CSc1n[nH]c(-c2ccccc2)n1

>  <unit-text>
µM

>  <sign>
>

>  <TGI>
100

$$$$
>  <molecule>
Cc1ccsc1/C=N/Nc1ccc2ccccc2n1

>  <unit-text>
µM

>  <sign>
>

>  <TGI>
100

$$$$
>  <molecule>
O=C1/C(=C/c2ccccc2)NC(=S)N1CN1CCOCC1

>  <unit-text>
µM

>  <sign>
>

>  <TGI>
100

$$$$
>  <molecule>
CC(=O)OC1O[C@@H](C(C)(C)O)CC[C@@H]1[C@H]1CC[C@@]2(C)C3=C(CC[C@]12C)[C@@]1(C)C[C@@H](OC(=O)CC(C)(O)CC(=O)O)[C@H](OC(C)=O)C(C)(C)C1CC3 (stereo not given in full)

>  <unit-text>
µM

>  <sign>
=

>  <TGI>
31.4

$$$$

====

Each item that follows carries a reported TGI.
# System: MDA-MB-231 breast
# procedure-details: NCI tumour cell line growth inhibition, 48 h

>  <compound>
Cn1c(=O)c2c(no[n+]2[O-])c2ccccc21

>  <sign>
=

>  <TGI, µM>
48

$$$$
>  <compound>
Nc1nc2c(ncn2Cc2ccc(CO)cc2)c(=O)[nH]1

>  <sign>
>

>  <TGI, µM>
100

$$$$
>  <compound>
COC12C=C/C(=C(/C(=O)OCc3ccncc3)C(=O)CCCCCCCCC3(OC)C=C/C(=C(/C(=O)OCc4ccncc4)C(=O)CCCCCCCC1)O3)O2

>  <sign>
=

>  <TGI, µM>
6.51

$$$$
>  <compound>
O=[N+]([O-])c1ccc(S(=O)(=O)N=Ic2ccccc2)cc1

>  <sign>
>

>  <TGI, µM>
100

$$$$
>  <compound>
COc1ccncc1C#Cc1cncc(C(=O)Nc2ccc(CN3CCN(C)CC3)c(C(F)(F)F)c2)c1

>  <sign>
=

>  <TGI, µM>
85.4

$$$$
>  <compound>
N#C/C=C(\c1ccc([N+](=O)[O-])cc1)n1nnc2cc(Cl)c(Cl)cc21

>  <sign>
=

>  <TGI, µM>
8.66

$$$$
>  <compound>
CCN1CCN=c2c3cc(OC)ccc3n3cnc4ccc1c2c43

>  <sign>
=

>  <TGI, µM>
0.814

$$$$
>  <compound>
CCOC(=O)c1cc(C2(O)CCN(CC(C)CC)C2=O)c(-c2cc(C)no2)[nH]1 (stereo not given)

>  <sign>
>

>  <TGI, µM>
100

$$$$
>  <compound>
Cc1ccc(Cl)cc1Nc1nc(C(F)(F)F)ccc1C(=O)N1CCN(c2cccc(Cl)c2)CC1

>  <sign>
>

>  <TGI, µM>
100

$$$$
>  <compound>
O=C(O)c1cccnc1

>  <sign>
>

>  <TGI, µM>
100

$$$$
